Values from ChEMBL document CHEMBL5143539

- Tested on: Staphylococcus aureus
- protocol-details: Antibacterial activity against wild type Staphylococcus aureus assessed as inhibition of bacterial growth
- Assay type: functional
measured-property: MIC (µg/mL)
Provide the reading as a plain figure in µg/mL.

The examples below pair each entry with its known result.
Data request: // query MIC value for entry CC(=O)O[C@H]1[C@H](C)[C@H](O)[C@H](C)[C@@H](O)[C@@H](C(C)OC(=O)C(C)(C)CC(=O)O)/C=C/C=C(/C)C(=O)Nc2c3oc4cc(NCCCN5CCN(c6cc7c(cc6F)c(=O)c(C(=O)O)cn7C6CC6)CC5)cc(O)c4nc-3c3c4c(c(C)c(O)c3c2=O)O[C@](C)(O/C=C/[C@H](O[C@H]2C[C@@H]3OCO[C@@H]3[C@@H](C)O2)[C@H]1C)C4=O (stereo partly specified)
Data returned: 4

Data request: Form field: reported MIC of CC(=O)O[C@H]1[C@H](C)[C@H](O)[C@H](C)[C@@H](O)[C@@H](C(C)OC(=O)C(C)(C)CC(=O)O)/C=C/C=C(/C)C(=O)Nc2c3oc4cc(NCCCCCCCCC(=O)N5Cc6cc(-c7ccc8c(=O)c(C(=O)O)cn(C9CC9)c8c7OC(F)F)ccc6[C@H]5C)cc(O)c4nc-3c3c4c(c(C)c(O)c3c2=O)O[C@](C)(O/C=C/[C@H](O[C@H]2C[C@@H]3OCO[C@@H]3[C@@H](C)O2)[C@H]1C)C4=O (stereo partly specified)
Data returned: 4

Data request: Returns the measured MIC for the input compound. Input: CO/N=C1\CN(c2nc3c(cc2F)c(=O)c(C(=O)O)cn3C2CC2)CC1CNC(=O)CC(C)(C)C(=O)OC(C)[C@H]1/C=C/C=C(/C)C(=O)NC2=CC(=O)c3c(c(O)c(C)c4c3C(=O)[C@@](C)(O/C=C/[C@H](O[C@H]3C[C@@H]5OCO[C@@H]5[C@@H](C)O3)[C@@H](C)[C@@H](OC(C)=O)[C@H](C)[C@H](O)[C@H](C)[C@H]1O)O4)C2=O (stereo partly specified)
Data returned: 16

Data request: MIC for CC(=O)O[C@H]1[C@H](C)[C@H](O)[C@H](C)[C@@H](O)[C@@H](C(C)OC(=O)C(C)(C)CC(=O)O)/C=C/C=C(/C)C(=O)Nc2c3oc4cc(NCCCCCC(=O)N5Cc6cc(-c7ccc8c(=O)c(C(=O)O)cn(C9CC9)c8c7OC(F)F)ccc6[C@H]5C)cc(O)c4nc-3c3c4c(c(C)c(O)c3c2=O)O[C@](C)(O/C=C/[C@H](O[C@H]2C[C@@H]3OCO[C@@H]3[C@@H](C)O2)[C@H]1C)C4=O (stereo partly specified) ?
Data returned: 1

Data request: // lookup MIC for N[C@@H]1[C@H]2CN(c3nc4c(cc3F)c(=O)c(C(=O)O)cn4-c3ccc(F)cc3F)C[C@@H]12
Data returned: 0.0078

Next:
Data request: Tell me the measured MIC of CC(=O)O[C@H]1[C@H](C)[C@H](O)[C@H](C)[C@@H](O)[C@@H](C(C)OC(=O)C(C)(C)CC(=O)O)/C=C/C=C(/C)C(=O)Nc2c3oc4cc(NC5(c6c(F)cc7c(=O)c(C(=O)O)cn8c7c6OC[C@@H]8C)CC5)cc(O)c4nc-3c3c4c(c(C)c(O)c3c2=O)O[C@](C)(O/C=C/[C@H](O[C@H]2C[C@@H]3OCO[C@@H]3[C@@H](C)O2)[C@H]1C)C4=O (stereo partly specified) , please.
Data returned: 8
